pKd values for the binders below.
Target: T1, recombinant human CD73 protein (ACRO Biosystems, item No. CD3-H52H7) (human, UniProt P21589 27-547)
T1 construct: also called recombinant CD73 protein
T1 sequence (looked up): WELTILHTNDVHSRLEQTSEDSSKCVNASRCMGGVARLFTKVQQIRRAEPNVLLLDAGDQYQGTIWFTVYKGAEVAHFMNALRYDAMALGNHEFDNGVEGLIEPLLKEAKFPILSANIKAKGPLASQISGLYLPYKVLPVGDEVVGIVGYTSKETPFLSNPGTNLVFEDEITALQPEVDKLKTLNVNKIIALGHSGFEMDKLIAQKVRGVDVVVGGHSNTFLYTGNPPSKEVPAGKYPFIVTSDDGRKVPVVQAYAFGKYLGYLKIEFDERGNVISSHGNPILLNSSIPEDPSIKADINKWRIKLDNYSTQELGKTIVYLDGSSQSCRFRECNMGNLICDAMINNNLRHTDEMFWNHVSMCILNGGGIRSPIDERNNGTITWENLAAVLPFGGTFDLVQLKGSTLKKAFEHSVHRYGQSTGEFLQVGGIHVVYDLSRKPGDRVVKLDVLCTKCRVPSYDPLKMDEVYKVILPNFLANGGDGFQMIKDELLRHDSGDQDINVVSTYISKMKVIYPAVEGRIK
Experiment: SPR, Biacore T200, antibody captured on protein A chip, human CD73 as analyte, 1:1 model
Note: pKd values are expressed as the negative base-10 logarithm of concentration in M.

The following binders have reported results that may help.
900728 (humanized anti-CD73 antigen-binding protein) (antibody, V domains shown) VH: QVQLVQSGAEVKKPGASVKVSCKASGYTFTSYWIHWVRQAPGQGLEWIGMIHPNSGSTYYNEKFQGRVTMTVDKSTSTAYMELSSLRSEDTAVYYCARYYGSDYEWYFDVWGQGTTVTVSS VL: DIQMTQSPSSLSASVGDRVTITCKASQNVRTAVVWYQQKPGKAPKALIYLASNRHTGVPDRFSGSGSGTDFTLTISSLQPEDFATYYCLQHWNYPYTFGQGTKLEIK; 9.42
900726 (humanized anti-CD73 antigen-binding protein) (antibody, V domains shown) VH: QVQLVQSGAEVKKPGASVKLSCKASGYTFTSYWIHWVRQAPGQGLEWIGMIHPNSGSTYYNEKFKGRATLTVDKSTSTAYMELSSLRSEDTAVYYCARYYGSDYEWYFDVWGQGTTVTVSS VL: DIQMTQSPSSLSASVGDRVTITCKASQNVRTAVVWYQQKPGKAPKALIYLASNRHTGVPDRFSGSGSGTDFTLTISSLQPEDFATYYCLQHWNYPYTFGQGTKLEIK; 8.60
900567 (human-mouse chimeric anti-CD73 antigen-binding protein expressed from 124A9 variable regions) (antibody, V domains shown) VH: QVQLQQPGAELVKPGASVKLSCKASGYTFTSYWIHWVKQRPGQGLDWIGMIHPNSGSTYYNEKFKSKATLTVDKSSSTAYMQLSSLTSEDSAVYYCARYYGSDYEWYFDVWGTGTTVTVSS VL: DIVMTQSQKFMSTSVGDRVSITCKASQNVRTAVVWYQQNPGQSPKALIYLASNRHTGVPDRFTGSGSGTDFTLTISNVHSEDLADYFCLQHWNYPYTFGGGTKLEIK; 9.19
900727 (humanized anti-CD73 antigen-binding protein) (antibody, V domains shown) VH: QVQLVQSGAEVKKPGASVKVSCKASGYTFTSYWIHWVRQAPGQGLEWIGMIHPNSGSTYYAQKFQGRVTITVDKSTSTAYMELSSLRSEDTAVYYCARYYGSDYEWYFDVWGQGTTVTVSS VL: DIQMTQSPSSMSASVGDRVTITCKASQNVRTAVVWYQQKPGKAPKALIYLASNRHTGVPDRFSGSGSGTDFTLTISSLQPEDFATYFCLQHWNYPYTFGQGTKLEIK; 9.10

// next entry
Query: pKd; subject: 900725 (humanized anti-CD73 antigen-binding protein) (antibody, V domains shown) VH: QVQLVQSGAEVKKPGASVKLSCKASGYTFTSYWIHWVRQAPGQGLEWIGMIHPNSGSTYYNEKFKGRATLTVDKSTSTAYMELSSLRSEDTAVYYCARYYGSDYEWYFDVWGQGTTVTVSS VL: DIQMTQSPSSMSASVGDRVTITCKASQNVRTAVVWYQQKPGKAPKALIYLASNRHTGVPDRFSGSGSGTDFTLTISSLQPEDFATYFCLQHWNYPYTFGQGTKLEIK
9.70
